- Tested on: human LPA1 (Homo sapiens, UniProt Q92633)
- Construct: expressed in transfected cells; host or cells: CHO-K1
- Sequence (Q92633 whole entry): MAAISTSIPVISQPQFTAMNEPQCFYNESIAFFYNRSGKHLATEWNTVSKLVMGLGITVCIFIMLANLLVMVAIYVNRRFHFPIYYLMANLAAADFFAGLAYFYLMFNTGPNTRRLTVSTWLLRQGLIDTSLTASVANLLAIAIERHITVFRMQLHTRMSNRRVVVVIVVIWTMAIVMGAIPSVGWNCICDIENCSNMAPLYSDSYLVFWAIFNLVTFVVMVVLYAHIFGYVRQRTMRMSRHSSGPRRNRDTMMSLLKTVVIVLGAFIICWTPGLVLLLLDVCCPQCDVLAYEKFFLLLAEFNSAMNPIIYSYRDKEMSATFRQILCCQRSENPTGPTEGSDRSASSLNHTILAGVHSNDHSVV
- Test method notes: In vitro LPA1 calcium flux antagonist assay - Bioduro protocol
- Format: cell-based
- Stated conditions: CHO-K1 cells overexpressing human LPA1 and G15a; LPA challenge at EC80; calcium mobilization on FLIPR Tetra; read-out: IC50
Outcome measure: IC50 (nM)
One number for each entry, in nM.

Some entries whose results are on file:
COC(=O)N1CC(Nc2ccc(-c3cc(OC)c(C)c(OC)c3)c(COC3CCCC3)c2)(C(=O)O)C1 ... 59.5
CCOc1cc(OC)cc(-c2ccc(NC3(C(=O)O)CCOCC3)cc2COC2CC2)c1 ... 1080
COc1c(C(C)OC)ccc(-c2ccc(NC3(C(=O)O)CCOCC3)cc2COC2CCCC2)c1C (single isomer, unassigned) [Compound 242] ... 266

Please give IC50, item by item, for the list that follows.
1. CCOc1cccc(-c2ccc(NC3(C(=O)O)CCC(F)(F)CC3)cc2COC2CC2)c1Cl
2. COc1cc(-c2ccc(NCC(C)C(=O)O)cc2COC2Cc3ccccc3C2)cc(OC)c1C (stereo not drawn)
3. COc1cc(-c2ccc(NC3(C(=O)O)CCOCC3)cc2COC2CC2)c(F)c(OC)c1C#N

0.633
2160
19.7
